- tgt: CUL2^ZYG11B (residues 490–728) (Homo sapiens)
- Construct: PCR was used to amplify CUL2^ZYG11B (residues 490–728); 6×His-SUMO (TEV-cleavable) (N, cleaved yes); made in house; host or cells: E. coli
- Sequence (Q9C0D3 490-728): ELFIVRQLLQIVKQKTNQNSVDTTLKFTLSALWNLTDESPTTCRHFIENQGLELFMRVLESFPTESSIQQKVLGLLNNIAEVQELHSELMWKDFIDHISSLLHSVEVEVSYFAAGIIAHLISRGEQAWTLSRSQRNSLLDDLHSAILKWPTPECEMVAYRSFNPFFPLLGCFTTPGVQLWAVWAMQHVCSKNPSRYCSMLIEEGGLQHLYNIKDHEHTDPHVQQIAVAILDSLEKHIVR
- procedure.summary: ITC binding of ORF10 NTE synthetic peptides to CUL2^ZYG11B
Residues, ends and D or L forms follow the SMILES beside them.
endpoint.name: Kd

## Input Which measured Kd value corresponds to NCC(=O)N[C@@H](Cc1ccc(O)cc1)C(=O)O [SARS-2 ORF10 N2] (H-Gly-Tyr-OH; N-terminus and C-terminus assumed) ?
## Output > 200 µM
